Cited source for all entries: patent US10774071B2

ASSAYED SYSTEM: PD-L1 (Homo sapiens (Human), UniProt Q9NZQ7)
Sequence (Q9NZQ7 19-238): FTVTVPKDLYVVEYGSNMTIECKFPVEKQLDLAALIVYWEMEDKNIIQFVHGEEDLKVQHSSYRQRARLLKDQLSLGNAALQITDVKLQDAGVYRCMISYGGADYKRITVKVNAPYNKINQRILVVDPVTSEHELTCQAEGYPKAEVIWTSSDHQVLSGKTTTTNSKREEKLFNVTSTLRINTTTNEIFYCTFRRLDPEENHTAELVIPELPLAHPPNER
Sequence (Q9NZQ7 19-238): as above
EXPERIMENT NOTES: PD-L1/PD-L1 dimerization biochemical protein-protein interaction assay (ALPHA)
Assay type: binding
MEASUREMENT SETUP: 0.5 nM His tagged PD-L1 and 0.5 nM FLAG tagged PD-L1, Table 4B, read-out: AC50 PDL1 Dimer 1 nM
For each of the molecules below, state its AC50.
One number for each entry, in nM.

Some molecules with known AC50 results, for comparison:
COc1nc(O[C@H]2CCc3c(-c4cccc(-c5cc(C)c(CN6CC[C@@H](C(=O)O)C6)c(OC)n5)c4Cl)cccc32)c(Cl)cc1CNC[C@@H]1CCC(=O)N1; 99.1
COc1nc(-c2cccc(-c3cccc4c3CC[C@@H]4Oc3nc(OC)c(CN4CC[C@@H](C(=O)O)C4)cc3C(F)(F)F)c2Cl)ccc1CNC[C@@H]1CCC(=O)N1; 9.3
COc1nc(-c2cccc(-c3cccc4c3CC[C@@H]4Oc3nc(OC)c(CN4CC5CCC4(C(=O)O)CC5)cc3Cl)c2Cl)ccc1CNC[C@@H]1CCC(=O)N1; 12

Endpoint output: AC50 of `COc1nc(-c2cccc(-c3cccc4c3CC[C@@H]4Oc3nc(OC)c(CN4CC(C(=O)O)C4)nc3Cl)c2Cl)cnc1CNC[C@@H]1CCC(=O)N1` . Value?
17.9
